Data provenance: the RepoRT retention time repository (doi:10.1021/acs.analchem.2c02893)

- Assay Text: RP, Thermo Scientific Acclaim RSLC 120 C18, 100 × 2.1 mm, 2.2 µm, 30 °C, 0.2 mL/min, estimated dead time 1.1 min; A: 90% water + 10% methanol + 0.01% formic acid + 5 mM ammonium formate, pH 3.61; B: methanol + 0.01% formic acid + 5 mM ammonium formate, pH 3.61; gradient (min/%B) 0/1 1/1 2/39 13/99.9 15/99.9 15.1/1 20.1/1
- Applied Conditions: stereoisomer not certain
Measured Attribute: LC retention time (min)

Compound	Unit Abbreviation	Assay Value
COc1cc2nc(N3CCN(C(=O)c4ccco4)CC3)nc(N)c2cc1OC [Prazosin]	min	5.34
Cc1ccc(C(C)NC(=O)C(NC(=O)OC(C)C)C(C)C)cc1 (centres undefined) [Iprovalicarb]	min	9.82
CNC(=O)Oc1cc(C)c(N(C)C)c(C)c1 [Mexacarbate]	min	9.3
COP(=O)(OC)OC1=C(Cl)C2CC=CC12 (centres undefined) [Heptenophos]	min	8.49
CN(CC(O)CO)C(=O)c1c(I)c(NC(=O)C(CO)CO)c(I)c(C(=O)N(C)CC(O)CO)c1I (centres undefined) [Iobitridol]	min	2.74
CC(=O)Nc1ccc(N)cc1 [4`-Aminoacetanilide]	min	2.27
O=C1CN=C(c2ccccc2Cl)c2cc(Cl)ccc2N1 [Delorazepam]	min	8.81
CCCCn1cc(C(=O)c2cccc3ccccc23)c2ccc(O)cc21 [JWH-073-M-6-OH-Ind]	min	10.6
CN(C)CCOC(c1ccc(Cl)cc1)c1ccccn1 (centres undefined) [Carbinoxamine]	min	6.08

###

- Assay Text: RP, Thermo Scientific Acclaim RSLC 120 C18, 100 × 2.1 mm, 2.2 µm, 30 °C, 0.2 mL/min, estimated dead time 1.1 min; A: 90% water + 10% methanol + 0.01% formic acid + 5 mM ammonium formate, pH 3.61; B: methanol + 0.01% formic acid + 5 mM ammonium formate, pH 3.61; gradient (min/%B) 0/1 1/1 2/39 13/99.9 15/99.9 15.1/1 20.1/1
- Applied Conditions: stereoisomer not certain
Measured Attribute: LC retention time (min)

Compound	Unit Abbreviation	Assay Value
CCOP(=O)(Sc1ccccc1)Sc1ccccc1 [Edifenphos]	min	10.8
Clc1nc(Cl)nc(Nc2ccccc2Cl)n1 [Anilazine (Dyrene)]	min	9.74
CNC(=O)Oc1cccc(C)c1 [Metolcarb]	min	6.59
CNC(C)C(=O)c1ccc(OC)cc1 (stereo not given) [Methedrone]	min	4.16
CN1C(=O)C(O)CC1c1cccnc1 (stereo not given) [Cotinine-Hydroxy]	min	3.13
CN(C)c1nc(N(C)C)nc(N(C)C)n1 [Altretamine]	min	10.1
Cc1ccccc1N1CCN(CCc2nnc3n2CCCC3)CC1 [Dapiprazole]	min	5.66
c1cnc2cc3c(cc2n1)C1CNCC3C1 [Varenicline]	min	3.63
CC12CCC(=O)C=C1C=CC1C2CCC2(C)C1CCC21CCC(=O)O1 (stereo not given) [Canrenone]	min	9.77
CC(C)C(NC(=O)c1nn(CC2CCCCC2)c2ccccc12)C(N)=O (stereo not given) [AB-CHMINACA]	min	11.3

###

- Assay Text: RP, Thermo Scientific Acclaim RSLC 120 C18, 100 × 2.1 mm, 2.2 µm, 30 °C, 0.2 mL/min, estimated dead time 1.1 min; A: 90% water + 10% methanol + 0.01% formic acid + 5 mM ammonium formate, pH 3.61; B: methanol + 0.01% formic acid + 5 mM ammonium formate, pH 3.61; gradient (min/%B) 0/1 1/1 2/39 13/99.9 15/99.9 15.1/1 20.1/1
- Applied Conditions: stereoisomer not certain
Tick Condition met if LC retention time is 6 min or greater. Tick Condition not met if LC retention time is less than 6 min.

Compound	Answer Label
OC(c1ccccc1)(c1ccccc1)C1CCCCN1 (centres undefined)	Condition not met
CC(C)C1(C)N=C(c2ncccc2C(=O)O)NC1=O (centres undefined)	Condition not met
CCCCCn1cc(C(=O)NC(C(N)=O)C(C)(C)C)c2ccccc21 (centres undefined)	Condition met
CCOP(=S)(OCC)SCn1nnc2ccccc2c1=O	Condition met
O=C(Nc1ccccc1)N(Cc1ccc(Cl)cc1)C1CCCC1	Condition met
Cc1nnc(-c2ccccc2)c(=O)n1N	Condition not met
CC(C)c1c(C(=O)Nc2ccccc2)c(-c2ccccc2)c(-c2ccc(F)cc2)n1CCC(O)CC(O)CC(=O)O (centres undefined)	Condition met
CC(Cc1ccccc1)NCCCCl (centres undefined)	Condition not met
COc1ccccc1N1CCN(CCCC(=O)c2ccc(F)cc2)CC1	Condition met
